molecular target: Serine/threonine-protein kinase MRCK beta (Homo sapiens); further: in the data inactive means no Kd found up to 30 µM
Sequence (Q9Y5S2 whole entry): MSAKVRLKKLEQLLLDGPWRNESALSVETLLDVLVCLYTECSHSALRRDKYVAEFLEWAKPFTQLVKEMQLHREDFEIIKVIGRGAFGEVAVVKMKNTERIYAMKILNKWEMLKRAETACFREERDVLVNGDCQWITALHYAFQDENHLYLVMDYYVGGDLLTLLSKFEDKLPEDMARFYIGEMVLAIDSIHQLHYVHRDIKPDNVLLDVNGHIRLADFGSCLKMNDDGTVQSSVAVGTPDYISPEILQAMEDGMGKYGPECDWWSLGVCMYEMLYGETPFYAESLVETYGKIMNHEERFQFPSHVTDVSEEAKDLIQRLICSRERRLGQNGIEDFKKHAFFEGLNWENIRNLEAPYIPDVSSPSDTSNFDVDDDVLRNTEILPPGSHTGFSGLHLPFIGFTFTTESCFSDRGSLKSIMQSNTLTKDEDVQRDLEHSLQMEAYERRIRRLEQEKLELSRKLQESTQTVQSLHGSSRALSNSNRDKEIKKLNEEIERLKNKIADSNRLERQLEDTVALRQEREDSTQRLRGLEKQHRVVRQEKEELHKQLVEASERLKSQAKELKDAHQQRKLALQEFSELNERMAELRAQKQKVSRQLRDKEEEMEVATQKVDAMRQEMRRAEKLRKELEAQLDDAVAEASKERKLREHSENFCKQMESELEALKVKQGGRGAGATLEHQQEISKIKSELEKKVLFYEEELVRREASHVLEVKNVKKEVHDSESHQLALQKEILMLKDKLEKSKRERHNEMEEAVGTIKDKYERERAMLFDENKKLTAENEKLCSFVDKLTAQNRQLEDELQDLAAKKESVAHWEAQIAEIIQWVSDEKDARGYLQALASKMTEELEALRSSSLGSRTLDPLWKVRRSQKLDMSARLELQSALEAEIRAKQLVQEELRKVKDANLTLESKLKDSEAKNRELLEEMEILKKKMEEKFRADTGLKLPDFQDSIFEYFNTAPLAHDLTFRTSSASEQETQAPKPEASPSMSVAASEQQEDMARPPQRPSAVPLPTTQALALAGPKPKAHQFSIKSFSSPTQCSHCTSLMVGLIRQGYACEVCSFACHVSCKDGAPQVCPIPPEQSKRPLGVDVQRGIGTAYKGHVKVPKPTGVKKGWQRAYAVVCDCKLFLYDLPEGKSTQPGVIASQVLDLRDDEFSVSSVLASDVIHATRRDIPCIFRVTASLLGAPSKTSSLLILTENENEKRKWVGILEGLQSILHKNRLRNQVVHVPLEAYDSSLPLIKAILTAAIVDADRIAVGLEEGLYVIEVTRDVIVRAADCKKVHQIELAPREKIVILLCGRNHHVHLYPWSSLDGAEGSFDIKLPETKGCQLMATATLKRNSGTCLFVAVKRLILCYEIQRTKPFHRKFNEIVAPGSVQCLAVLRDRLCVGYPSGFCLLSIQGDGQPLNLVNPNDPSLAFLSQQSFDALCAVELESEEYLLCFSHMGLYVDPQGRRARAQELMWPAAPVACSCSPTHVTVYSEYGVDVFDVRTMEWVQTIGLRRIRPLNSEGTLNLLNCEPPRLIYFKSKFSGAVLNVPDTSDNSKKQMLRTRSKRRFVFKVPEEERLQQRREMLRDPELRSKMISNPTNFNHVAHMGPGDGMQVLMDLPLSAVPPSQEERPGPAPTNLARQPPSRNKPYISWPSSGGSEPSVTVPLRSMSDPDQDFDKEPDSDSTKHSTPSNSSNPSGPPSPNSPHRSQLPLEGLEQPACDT
Activity calls are given as the source filed them.
Classes used: yes for active, no for inactive

>>> class("C[C@@H](N)c1ccc(C(=O)Nc2ccnc3[nH]ccc23)cc1")
"yes"
>>> class("Cn1cc(-c2cnc3ccc4ccc(CS(=O)(=O)NCc5ccccn5)cc4c(=O)c3c2)cn1")
"no"
>>> class("CNC(=O)c1cccc2cc(Oc3ccnc4cc(OCC5(N)CC5)c(OC)cc34)ccc12")
"no"
>>> class("Cc1cc(Nc2ncc(Cl)c(Nc3ccccc3S(=O)(=O)C(C)C)n2)c(OC(C)C)cc1C1CCNCC1")
"no"
>>> class("CNC(=O)c1nn(C)c2c1C(C)(C)Cc1cnc(Nc3ccc(N4CCN(C)CC4)cc3)nc1-2")
"no"
>>> class("O=c1[nH]ccc2cc(OC3CCNCC3)ccc12 [SAR-407899 FREE BASE]")
"yes"
>>> class("O=C(Nc1c[nH]nc1-c1nc2cc(CN3CCOCC3)ccc2[nH]1)NC1CC1")
"no"
>>> class("Cn1cc(-c2cnn3c(N)c(Br)c([C@@H]4CCCNC4)nc23)cn1")
"no"

* * *

This section presents compounds with their documented Kd values.
target: ADP/ATP translocase 3 (Homo sapiens, UniProt P12236); further: in the data inactive means no Kd found up to 30 µM
Sequence (P12236 whole entry): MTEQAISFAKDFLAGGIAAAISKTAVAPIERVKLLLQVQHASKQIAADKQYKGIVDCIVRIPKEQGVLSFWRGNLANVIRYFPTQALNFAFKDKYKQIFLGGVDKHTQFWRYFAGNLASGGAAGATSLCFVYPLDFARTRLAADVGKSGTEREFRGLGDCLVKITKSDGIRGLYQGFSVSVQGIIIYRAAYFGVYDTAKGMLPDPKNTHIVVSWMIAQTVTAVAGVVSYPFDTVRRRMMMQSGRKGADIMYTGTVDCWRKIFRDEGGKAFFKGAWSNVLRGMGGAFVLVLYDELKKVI
Structures can show the parent of a compound that is named as a salt. Activity calls are given as the source filed them.
Readout label: Kd

>>> value_observed("CC(C)(C)c1nc(-c2cccc(NS(=O)(=O)c3c(F)cccc3F)c2F)c(-c2ccnc(N)n2)s1 [DABRAFENIB]")
"> 30 µM (inactive)"
>>> value_observed("CCS(=O)(=O)N1CCN(c2ccc(Nc3ncc(C(N)=O)c(NC4CC4)n3)cc2)CC1 [Cerdulatinib Hydrochloride]")
"> 30 µM (inactive)"
>>> value_observed("Cc1nc(NC(=O)N2CCC[C@H]2C(N)=O)sc1-c1ccnc(C(C)(C)C(F)(F)F)c1 [ALPELISIB]")
"> 30 µM (inactive)"
>>> value_observed("Cn1cnc2c(F)c(Nc3ccc(Br)cc3F)c(C(=O)NOCCO)cc21 [BINIMETINIB]")
"> 30 µM (inactive)"
>>> value_observed("O=C(Nc1cc(C(F)(F)F)cc(C(F)(F)F)c1)c1cc(Cl)ccc1O [IMD-0354]")
"> 30 µM (inactive)"
>>> value_observed("CNC(=O)c1nn(C)c2c1C(C)(C)Cc1cnc(Nc3ccc(N4CCN(C)CC4)cc3)nc1-2 [MILCICLIB]")
"> 30 µM (inactive)"
>>> value_observed("O=C(Nc1c[nH]nc1-c1nc2cc(CN3CCOCC3)ccc2[nH]1)NC1CC1 [AT-9283]")
"> 30 µM (inactive)"
>>> value_observed("C=CC(=O)Nc1cc2c(Nc3ccc(F)c(Cl)c3)ncnc2cc1C#CC(C)(C)N1CCN(C)CC1 [AV-412 FREE BASE]")
"> 30 µM (inactive)"
>>> value_observed("O=C(NOCCO)c1cc(CN2OCCCC2=O)c(F)c(F)c1Nc1ccc(I)cc1F [RO-4987655]")
"> 30 µM (inactive)"
>>> value_observed("O=C(Cc1ccc(-c2ccc(OCCN3CCOCC3)cc2)cn1)NCc1ccccc1 [TIRBANIBULIN]")
"> 30 µM (inactive)"
>>> value_observed("COc1cc2ncnc(Oc3cccc(NC(=O)Nc4cc(C(C)(C)C(F)(F)F)on4)c3)c2cc1OC [CEP-32496]")
"> 30 µM (inactive)"
>>> value_observed("COc1cc([C@@H]2c3cc4c(cc3[C@H](O)[C@H]3COC(=O)[C@@H]23)OCO4)cc(OC)c1OC [AXL-1717]")
"> 30 µM (inactive)"
>>> value_observed("CO[C@H]1C[C@@H]2CC[C@@H](C)[C@@](O)(O2)C(=O)C(=O)N2CCCC[C@H]2C(=O)O[C@H]([C@H](C)C[C@@H]2CC[C@@H](O)[C@H](OC)C2)CC(=O)[C@H](C)/C=C(\\C)[C@@H](O)[C@@H](OC)C(=O)[C@H](C)C[C@H](C)/C=C/C=C/C=C/1C [SIROLIMUS]")
"> 30 µM (inactive)"
>>> value_observed("CN1CCN(CCOc2cc(OC3CCOCC3)c3c(Nc4c(Cl)ccc5c4OCO5)ncnc3c2)CC1 [SARACATINIB]")
"> 30 µM (inactive)"
>>> value_observed("Cc1csc(-c2nnc(Nc3ccc(Oc4ncccc4-c4ccnc(N)n4)cc3)c3ccccc23)c1 [AMG-900]")
"> 30 µM (inactive)"
>>> value_observed("Cc1cccc(-c2nn3c(c2-c2ccnc4ccc(C(N)=O)cc24)CCC3)n1 [GALUNISERTIB]")
"> 30 µM (inactive)"
>>> value_observed("COc1cc2c(Nc3ccc(Cl)c(Cl)c3F)ncnc2cc1OC[C@@H]1C[C@@H]2CN(C)C[C@@H]2C1 [TESEVATINIB]")
"> 30 µM (inactive)"
>>> value_observed("Cc1cc(Nc2ncc(Cl)c(Nc3ccccc3S(=O)(=O)C(C)C)n2)c(OC(C)C)cc1C1CCNCC1 [CERITINIB]")
"> 30 µM (inactive)"
>>> value_observed("NC1(c2ccc(-c3nc4ccn5c(=O)[nH]nc5c4cc3-c3ccccc3)cc2)CCC1 [MK-2206]")
"> 30 µM (inactive)"
>>> value_observed("N#CC[C@H](C1CCCC1)n1cc(-c2ncnc3[nH]ccc23)cn1 [RUXOLITINIB]")
"> 30 µM (inactive)"
>>> value_observed("CNC(=O)c1cc(Oc2ccc(NC(=O)Nc3cc(C(C)(C)C)nn3-c3ccc4ncccc4c3)c(F)c2)ccn1 [REBASTINIB]")
"> 30 µM (inactive)"
>>> value_observed("O=c1[nH]ccc2cc(OC3CCNCC3)ccc12 [SAR-407899 FREE BASE]")
"> 30 µM (inactive)"
>>> value_observed("CCNC(=O)C#Cc1ccc2c(c1)NC(=O)/C2=C(\\Nc1ccc(CN(C)C)cc1)c1ccccc1")
"> 30 µM (inactive)"
>>> value_observed("CCOc1cc2ncc(C#N)c(Nc3ccc(F)c(Cl)c3)c2cc1NC(=O)/C=C/CN(C)C [PELITINIB]")
"> 30 µM (inactive)"
>>> value_observed("C[C@@H](N)c1ccc(C(=O)Nc2ccnc3[nH]ccc23)cc1 [Y-39983]")
"> 30 µM (inactive)"
>>> value_observed("Cc1cnc(NC(=O)Nc2cc(Br)c(C)cc2OC[C@@H]2CNCCO2)cn1 [RABUSERTIB]")
"> 30 µM (inactive)"
>>> value_observed("Cn1cc(-c2cnc3ccc4ccc(CS(=O)(=O)NCc5ccccn5)cc4c(=O)c3c2)cn1 [MK-8033]")
"> 30 µM (inactive)"
>>> value_observed("CC(C)c1cc(CNc2nc(Nc3cc(C4CC4)[nH]n3)cc(N3CCN(C)CC3)n2)on1 [XL-228]")
"> 30 µM (inactive)"
>>> value_observed("NC(=O)Nc1cc(-c2cccc(F)c2)sc1C(=O)N[C@H]1CCCNC1 [AZD-7762]")
"> 30 µM (inactive)"
>>> value_observed("Cc1cc(Nc2ncnc3ccc(NC4=NC(C)(C)CO4)cc23)ccc1Oc1ccn2ncnc2c1 [TUCATINIB]")
"> 30 µM (inactive)"
>>> value_observed("C[C@@H](Oc1cc(C(=O)Nc2ccc(C(=O)N3CCN(C)CC3)cc2)nnc1N)c1c(Cl)ccc(F)c1Cl")
"> 30 µM (inactive)"
